Readings of Activity for the listed compounds
Test system: A549
Assay: Induction of apoptosis in human A549 cells assessed as increase in hypodiploid sub-G1 DNA fraction at 10 uM after 24 hrs by propidium iodide-based flow cytometric analysis (reference value: 3 %)
Type: functional
MEASUREMENT_NAME: Activity (%)

{"COMPOUND": "Cc1ccccc1/C=C/[C@@]12C=CC3(OO1)C(C)(C)CCC[C@]3(C)O2 (mixture of isomers)", "READING_UNIT": "%", "VALUE_OBSERVED": 69.8}
{"COMPOUND": "COc1ccc(/C=C/[C@@]23C=CC4(OO2)C(C)(C)CCC[C@]4(C)O3)cc1OC (mixture of isomers)", "READING_UNIT": "%", "VALUE_OBSERVED": 69.8}
{"COMPOUND": "CC1(C)CCC[C@]2(C)O[C@]3(/C=C/c4ccc(Cl)c(Cl)c4)C=CC12OO3 (mixture of isomers)", "READING_UNIT": "%", "VALUE_OBSERVED": 71.7}
{"COMPOUND": "CC1(C)CCC[C@]2(C)O[C@]3(/C=C/c4ccccc4[N+](=O)[O-])C=CC12OO3 (mixture of isomers)", "READING_UNIT": "%", "VALUE_OBSERVED": 76}
